Test system: Aspergillus niger
EXPERIMENT NOTES: Antifungal activity against Aspergillus niger NCIM 545 after 48 hrs by agar cup plate method; also: test concentration or dose not given here
Type: functional
QUANTITY: diameter of the inhibition zone (DIZ) (mm)
Numbers only here, please. The scale is mm.

Suppose we examine the compound CCOP(=O)(OCC)C(O)c1cc2ccc(C)cc2n2nnnc12 (stereo not drawn) ; what diameter of the inhibition zone (DIZ) value has been reported?
13.2

Suppose we examine the compound CCOP(=O)(OCC)C(OC(C)=O)c1cc2ccccc2n2nnnc12 (stereo not drawn) ; what diameter of the inhibition zone (DIZ) value has been reported?
13.4

Suppose we examine the compound CCOP(=O)(OCC)C(OC(C)=O)c1cc2cc(OC)ccc2n2nnnc12 (stereo not drawn) ; what diameter of the inhibition zone (DIZ) value has been reported?
14.2

----------
System: Aspergillus niger
EXPERIMENT NOTES: Antifungal activity against Aspergillus niger NCIM 545 after 48 hrs by agar cup plate method; also: test concentration or dose not given here
Type: functional
diameter of the inhibition zone (DIZ): recorded values
Numbers only here, please. The scale is mm.

Examples from the recorded data:
COMPOUND	diameter of the inhibition zone (DIZ) / mm
CCOP(=O)(OCC)C(OC(C)=O)c1cc2ccc(OC)cc2n2nnnc12 (stereo not given)	12.5
CCOP(=O)(OCC)C(OC(C)=O)c1cc2cc(C)ccc2n2nnnc12 (stereo not given)	14.1
CCOP(=O)(OCC)C(O)c1cc2cc(C)ccc2n2nnnc12 (stereo not given)	14.2
COC1=CC(=O)C[C@@H](C)[C@]12Oc1c(Cl)c(OC)cc(OC)c1C2=O	16.5

Next item in the queue.
Suppose we examine the compound CCOP(=O)(OCC)C(O)c1cc2ccc(OC)cc2n2nnnc12 (stereo not given) ; what diameter of the inhibition zone (DIZ) value has been reported?
14.4

----------
Tested on: Aspergillus niger
EXPERIMENT NOTES: Antifungal activity against Aspergillus niger NCIM 545 after 48 hrs by agar cup plate method; also: test concentration or dose not given here
Assay type: functional
QUANTITY: diameter of the inhibition zone (DIZ) (mm)
Numbers only here, please. The scale is mm.

Suppose we examine the molecule CCOP(=O)(OCC)C(O)c1cc2cc(OC)ccc2n2nnnc12 (stereo unspecified) ; what diameter of the inhibition zone (DIZ) value has been reported?
12.2

Suppose we examine the molecule CCOc1ccc2c(c1)cc(C(O)P(=O)(OCC)OCC)c1nnnn12 (stereo unspecified) ; what diameter of the inhibition zone (DIZ) value has been reported?
12.8

Suppose we examine the molecule CCOP(=O)(OCC)C(OC(C)=O)c1cc2cccc(OC)c2n2nnnc12 (stereo unspecified) ; what diameter of the inhibition zone (DIZ) value has been reported?
13.4

Suppose we examine the molecule CCOP(=O)(OCC)C(O)c1cc2cccc(C)c2n2nnnc12 (stereo unspecified) ; what diameter of the inhibition zone (DIZ) value has been reported?
13.1

Suppose we examine the molecule CCOP(=O)(OCC)C(O)c1cc2cccc(OC)c2n2nnnc12 (stereo unspecified) ; what diameter of the inhibition zone (DIZ) value has been reported?
11.5

Suppose we examine the molecule CCOP(=O)(OCC)C(O)c1cc2cccc(CC)c2n2nnnc12 (stereo unspecified) ; what diameter of the inhibition zone (DIZ) value has been reported?
14.2

Suppose we examine the molecule CCOc1ccc2c(c1)cc(C(OC(C)=O)P(=O)(OCC)OCC)c1nnnn12 (stereo unspecified) ; what diameter of the inhibition zone (DIZ) value has been reported?
14.5

Suppose we examine the molecule CCOP(=O)(OCC)C(OC(C)=O)c1cc2cccc(CC)c2n2nnnc12 (stereo unspecified) ; what diameter of the inhibition zone (DIZ) value has been reported?
13.5

Suppose we examine the molecule CCOP(=O)(OCC)C(OC(C)=O)c1cc2cccc(C)c2n2nnnc12 (stereo unspecified) ; what diameter of the inhibition zone (DIZ) value has been reported?
12.2

Suppose we examine the molecule CCOP(=O)(OCC)C(OC(C)=O)c1cc2ccc(C)cc2n2nnnc12 (stereo unspecified) ; what diameter of the inhibition zone (DIZ) value has been reported?
15.2

Suppose we examine the molecule CCOP(=O)(OCC)C(O)c1cc2ccccc2n2nnnc12 (stereo unspecified) ; what diameter of the inhibition zone (DIZ) value has been reported?
12.1
